# Study target: Neu5Ac(a2-3)Gal(b1-3)GlcNAc
# Assay: glycan array binding signal (z-score within array); higher = stronger binding
# Stated conditions: glycan notation: IUPAC condensed, linker removed
Shown is part of a subset that was picked to be rich in the strongest signals.
Measure: glycan array binding signal (z-score)

binder="Dectin-1 CTLD (Mus musculus), Q6QLQ4 (protein) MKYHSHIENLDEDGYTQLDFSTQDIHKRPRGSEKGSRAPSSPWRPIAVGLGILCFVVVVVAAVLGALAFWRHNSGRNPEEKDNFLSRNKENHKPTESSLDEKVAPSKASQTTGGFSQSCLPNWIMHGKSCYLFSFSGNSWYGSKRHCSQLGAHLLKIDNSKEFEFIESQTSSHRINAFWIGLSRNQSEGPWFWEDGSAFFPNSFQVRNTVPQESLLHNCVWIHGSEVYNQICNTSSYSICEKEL" reported_value=-0.294
binder="SJA (Sophora japonica) (protein) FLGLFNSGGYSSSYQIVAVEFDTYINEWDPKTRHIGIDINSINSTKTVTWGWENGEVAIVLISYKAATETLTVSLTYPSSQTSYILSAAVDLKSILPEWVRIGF" reported_value=-0.139
binder="MLTim-4 (Mus musculus), Q6U7R4 (protein) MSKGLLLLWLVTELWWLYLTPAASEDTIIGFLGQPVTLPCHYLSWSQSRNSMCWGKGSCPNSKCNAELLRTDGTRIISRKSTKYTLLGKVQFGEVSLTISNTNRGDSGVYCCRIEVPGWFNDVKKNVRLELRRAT" reported_value=-0.547
binder="MCL (Mus musculus), Q9Z2H6 (protein) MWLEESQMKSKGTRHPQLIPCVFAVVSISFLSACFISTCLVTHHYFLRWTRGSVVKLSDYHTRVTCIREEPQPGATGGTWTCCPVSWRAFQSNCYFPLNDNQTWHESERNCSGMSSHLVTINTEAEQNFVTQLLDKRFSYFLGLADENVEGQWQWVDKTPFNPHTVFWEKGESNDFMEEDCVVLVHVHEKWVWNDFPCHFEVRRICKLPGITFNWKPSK" reported_value=0.527
binder="Sp8391B-bot-388-20-388 (Bacteroides ovatus) (protein) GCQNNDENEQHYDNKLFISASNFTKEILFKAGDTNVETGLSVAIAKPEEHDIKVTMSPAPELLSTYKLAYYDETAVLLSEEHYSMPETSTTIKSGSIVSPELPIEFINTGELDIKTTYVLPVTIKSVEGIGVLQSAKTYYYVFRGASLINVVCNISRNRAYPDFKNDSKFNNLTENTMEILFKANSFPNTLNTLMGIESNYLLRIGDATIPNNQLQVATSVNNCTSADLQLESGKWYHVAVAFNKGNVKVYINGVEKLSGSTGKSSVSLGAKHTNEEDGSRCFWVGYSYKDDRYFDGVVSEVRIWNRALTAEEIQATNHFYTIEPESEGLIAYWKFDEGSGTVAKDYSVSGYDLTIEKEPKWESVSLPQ" reported_value=-0.213
binder="RobpsCRA (Robinia pseudoacacia) (protein) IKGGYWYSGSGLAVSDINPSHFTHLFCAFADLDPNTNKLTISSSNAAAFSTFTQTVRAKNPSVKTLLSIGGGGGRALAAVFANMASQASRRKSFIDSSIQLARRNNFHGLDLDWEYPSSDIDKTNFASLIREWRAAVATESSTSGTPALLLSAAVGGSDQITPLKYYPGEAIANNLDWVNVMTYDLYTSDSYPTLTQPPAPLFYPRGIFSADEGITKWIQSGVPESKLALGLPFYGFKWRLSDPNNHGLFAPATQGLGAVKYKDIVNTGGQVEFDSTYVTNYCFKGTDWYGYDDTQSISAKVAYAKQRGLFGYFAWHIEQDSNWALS" reported_value=0.156
binder="ECA (Erythrina cristagalli), P83410 (protein) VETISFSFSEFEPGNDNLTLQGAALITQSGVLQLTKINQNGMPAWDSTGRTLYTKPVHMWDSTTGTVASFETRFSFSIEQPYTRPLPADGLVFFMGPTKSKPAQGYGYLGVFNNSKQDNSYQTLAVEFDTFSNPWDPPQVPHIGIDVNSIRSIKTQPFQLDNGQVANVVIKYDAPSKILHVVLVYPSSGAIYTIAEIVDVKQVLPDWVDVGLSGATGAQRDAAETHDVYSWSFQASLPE" reported_value=-0.269
binder="Nc3LysM-2 (protein) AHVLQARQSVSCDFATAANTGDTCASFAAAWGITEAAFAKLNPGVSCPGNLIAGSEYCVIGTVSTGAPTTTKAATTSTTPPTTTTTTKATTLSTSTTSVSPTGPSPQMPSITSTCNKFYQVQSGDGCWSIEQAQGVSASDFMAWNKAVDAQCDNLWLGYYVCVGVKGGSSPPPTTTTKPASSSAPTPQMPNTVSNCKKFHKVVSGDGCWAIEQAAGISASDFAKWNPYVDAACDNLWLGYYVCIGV" reported_value=0.767
binder="DCAL1 (Homo sapiens), Q8IZS7 (protein) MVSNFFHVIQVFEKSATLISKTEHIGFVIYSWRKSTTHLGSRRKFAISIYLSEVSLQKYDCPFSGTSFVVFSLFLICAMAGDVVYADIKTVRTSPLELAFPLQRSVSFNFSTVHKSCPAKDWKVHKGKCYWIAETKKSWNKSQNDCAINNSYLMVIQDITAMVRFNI" reported_value=-0.253
binder="MIG/CXCL9 (Homo sapiens) (protein) TPVVRKGRCSCISTNQGTIHLQSLKDLKQFAPSPSCEKIEIIIATLKNGVQTCLNPDSADVKELIKKTEKQVSQKKKQKNGKKHQKKKVLKVRKSQRSRQKKTT" reported_value=-0.037
